The reported numbers originate from patent US5508401A.

Assay: Traction reflex deficit (ataxia) in mice
Details: mouse, in vivo, ip, dose which produced the deficit in 50% of animals tested
measure_name: TD50 (mg/kg)
Quick reminder: number only, in mg/kg, skip the unit.

Incoming: Any idea what TD50 was measured for CC12CNC(Cc3ccc(Br)cc31)c1ccccc12 (stereo not shown) ?
Outgoing: 14.7

###

Target: NMDA-associated ion channel
Assay: Displacement of [3H]-TCP from its binding site in rat frontal cortex homogenates
Conditions: functional binding assay without added spermidine
Can you tell me pIC50 for the items I'm about to list?
API: returns pIC50 as number; meaning -log10 of concentration in mol/L.

Incoming: // lookup pIC50 | system=NMDA-associated ion channel | key= "COc1ccc2c(c1)[C@]13CCCC[C@@H]1[C@H](C2)N(C)CC3"
Outgoing: 6.13

Incoming: // lookup pIC50 | system=NMDA-associated ion channel | key= CC12CNC(Cc3ccccc31)c1ccc(Br)cc12 (stereo not shown)
Outgoing: 6.96

Incoming: // lookup pIC50 | system=NMDA-associated ion channel | key= CC12CNC(Cc3ccc(Br)cc31)c1ccccc12 (single isomer, unassigned; (-)) [Example 5]
Outgoing: 6.00

Incoming: // lookup pIC50 | system=NMDA-associated ion channel | key= "C[C@]12N[C@H](Cc3ccccc31)c1ccccc12"
Outgoing: 8.59
